experiment: Cytotoxicity against LPS-induced mouse BV2 cells assessed as cell viability at 5 uM pretreated for 15 mins followed by LPS-stimulation measured after 24 hrs by MTT assay relative to control; assay type: cell-based, BV-2; details: LPS-stimulated BV2 cells, read-out: Activity
outcome_measure: viability at 24 h, 5 µM (%)
The reply should be a number in %, with the unit left off.

- smiles_representation: "C=C1C(=O)C[C@]2(O)[C@H](O)C3=C(CC(C)(C)C3=O)[C@]12C"
  numeric_readout: 95

Suppose we examine the molecule `C=C1[C@H](O)C[C@]2(O)C[C@]3(O)CC(C)(C)C[C@]3(O)[C@]12C` ; what viability at 24 h, 5 µM value has been reported?
82

And what about the molecule `C=C1C(=O)C=C2C=C3[C@@H](O)C(C)(C)C[C@@]3(O)[C@]12C` ?
87

One more molecule: `C=C1C(=O)C[C@@]2(OC)C[C@]3(O)CC(C)(C)C[C@@H]3[C@]12C`
30
